Assign T/C to each entry below.
- System: L1210 leukemia ip in BDF1 mice, survival T/C
- protocolDescription: NCI In Vivo Anticancer Drug Screen. Data for tumor model L1210 Leukemia (intraperitoneal) in B6D2F1 (BDF1) mice
- conditionParameters: endpoint: mean survival time; dose: 150.0 mg/kg/injection; schedule: Q01DX001 (ip); vehicle: saline; higher = longer survival
Toxic doses and inconclusive results are not listed.

Count: 8. Required value per item: T/C.
1. O=C1CC(c2ccccc2)C(c2ccccc2)C(=O)N1 (stereo not drawn)
2. CC(C)(C)N1CCC1CO (stereo not drawn)
3. CC(C)=CCNc1nc(=O)[nH]c2nc[nH]c12
4. O=C1N(O)C2(CCCC(O)C2O)C(=O)C12CCCCC2 (stereo not drawn)
5. CC1=N/C(=N\c2nc3ccccc3[nH]2)NC(=O)CC1
6. O=S(=O)(F)c1ccc(C[P+](c2ccccc2)(c2ccccc2)c2ccccc2)cc1
7. CCOc1ccc([N+](=O)[O-])cc1N(C)C(C)=O
8. C=CCC1(C(C)CCC)C(=O)NC(=S)NC1=O (stereo not drawn)

90 % of control
97 % of control
88 % of control
96 % of control
93 % of control
105 % of control
102 % of control
98 % of control

* * *

- System: L1210 leukemia ip in BDF1 mice, survival T/C
- protocolDescription: NCI In Vivo Anticancer Drug Screen. Data for tumor model L1210 Leukemia (intraperitoneal) in B6D2F1 (BDF1) mice
- conditionParameters: endpoint: mean survival time; dose: 50.0 mg/kg/injection; schedule: Q01DX009 (ip); vehicle: saline with Tween-80; higher = longer survival
Inconclusive results and toxic doses are left out.
Exercise: state measured T/C for each of the compounds provided.

Give measured T/C for every item shown.
1. COc1ccc(SC(=O)Nc2cc([N+](=O)[O-])ccc2Cl)cc1
2. CN(C)Cc1cc(C(C)(C)C)c(O)c(C(C)(C)C)c1
3. O=C(O)c1ccsc1Cc1ccsc1
4. Cc1ccccc1NC(=O)NCCBr

1: 89 % of control; 2: 98 % of control; 3: 89 % of control; 4: 95 % of control

* * *

- Tested on: L1210 leukemia ip in BDF1 mice, survival T/C
- protocolDescription: NCI In Vivo Anticancer Drug Screen. Data for tumor model L1210 Leukemia (intraperitoneal) in B6D2F1 (BDF1) mice
- conditionParameters: endpoint: mean survival time; dose: 100.0 mg/kg/injection; schedule: Q01DX001 (ip); vehicle: saline; higher = longer survival
Inconclusive results and toxic doses are left out. Peptide text beside a SMILES is read from it. * marks the point of attachment. Cbz = O=C(OCc1ccccc1)*
reportedMetric: T/C

Below are worked cases with known answers.
CCCCSC(=O)C(O)c1ccccc1 (configuration not stated); 105 % of control
CCN(CC)CCNC(c1ccccc1)C(Cl)(Cl)Cl (configuration not stated); 100 % of control
NCCCCC(N)C(=O)Nc1ccc(Cc2ccc(NC(=O)C(N)CCCCN)cc2)cc1 (configuration not stated); 100 % of control
Nc1nc2ncnc(N)c2nc1-c1ccc(N(CCO)CCO)cc1; 104 % of control
O=c1[nH]c(=O)c2[nH]c(Br)c(Br)c2[nH]1; 93 % of control

// for each compound below, give its T/C
1. COC(=O)C(CC(C)C)NC(=O)C(CC(N)=O)NC(=O)C(NC(=O)OCc1ccccc1)C(C)C (stereo not drawn) (Cbz-Val-Asn-Leu-OMe; configuration not given here)
2. Cc1coc2c1CC1(C)C(CCC(O)C1C)C2 (configuration not stated)

1. 95 % of control
2. 97 % of control

* * *

- Test system: L1210 leukemia ip in BDF1 mice, survival T/C
- protocolDescription: NCI In Vivo Anticancer Drug Screen. Data for tumor model L1210 Leukemia (intraperitoneal) in B6D2F1 (BDF1) mice
- conditionParameters: endpoint: mean survival time; dose: 25.0 mg/kg/injection; schedule: Q01DX009 (ip); vehicle: saline with Tween-80; higher = longer survival
Toxic doses and inconclusive results are not listed.
Can you tell me T/C for the items I'm about to list?

CC(=O)Nc1ccc(S(=O)(=O)Nc2ccc([N+](=O)[O-])cc2)cc1; 96 % of control
CCOC(=O)C1CNc2ccccc2N1 (stereo not drawn); 93 % of control

Here is the next item to consider.
Please provide the recorded T/C for CC1CCCC(C)N1NC1=NCCO1 (stereo not drawn) , tested on L1210 leukemia ip in BDF1 mice, survival T/C. 96 % of control

* * *

Hi there, I'd appreciate the recorded T/C for every entry that follows.
- System: L1210 leukemia ip in BDF1 mice, survival T/C
- protocolDescription: NCI In Vivo Anticancer Drug Screen. Data for tumor model L1210 Leukemia (intraperitoneal) in B6D2F1 (BDF1) mice
- conditionParameters: endpoint: mean survival time; dose: 200.0 mg/kg/injection; schedule: Q01DX009 (ip); vehicle: saline with Tween-80; higher = longer survival
Toxic doses and inconclusive results are not listed.

As a guide, the following entries are already answered.
Cc1cccc(Cl)c1NC(=O)CC#N; 95 % of control
CCOC(=O)CCCN(c1sc(C)c(-c2ccccc2)c1C(=O)OCC)S(=O)(=O)c1ccc(C)cc1; 90 % of control
O=C1c2cccc3c(Br)ccc(c23)C(=O)N1C1CCCCCCCCCCC1; 90 % of control

Give one value of T/C per listed compound.
1. CCC1(c2ccccc2)C(=O)N(COCc2ccccc2)C(=O)N(COCc2ccccc2)C1=O
2. CC(=O)C1(C(C)=O)C(c2cccc([N+](=O)[O-])c2)C1(c1ccccc1)[N+](=O)[O-] (stereo not given)
3. NC(=O)c1ncn[nH]1
4. CN(C)N=Nc1ccc(C#N)cc1

1. 102 % of control
2. 102 % of control
3. 120 % of control
4. 100 % of control

Below is a list of compounds. For each, state its recorded T/C.
1. F[Si]1(c2cccc(Br)c2)c2ccccc2-c2ccccc21
2. C/C(=N\NS(=O)(=O)c1ccc(C)cc1)C1CCSC1 (stereo not given)
3. COC(=O)c1ccc(O)c([N+](=O)[O-])c1

1. 101 % of control
2. 101 % of control
3. 89 % of control

* * *

- Test system: L1210 leukemia ip in BDF1 mice, survival T/C
- protocolDescription: NCI In Vivo Anticancer Drug Screen. Data for tumor model L1210 Leukemia (intraperitoneal) in B6D2F1 (BDF1) mice
- conditionParameters: endpoint: mean survival time; dose: 400.0 mg/kg/injection; schedule: Q04DX003 (ip); vehicle: saline with Tween-80; higher = longer survival
- Experimental: The antitumor activity of compounds was measured in mice bearing transplantable tumors. Survival or tumor size were measured and the results are expressed as the measurement made in the treated group (T) divided by the measurement made in the vehicle treated control group (C). The tumor model used in this assay is L1210 Leukemia (intraperitoneal) in B6D2F1 (BDF1) mice
Toxic doses and inconclusive results are not listed.
reportedMetric: T/C

The cases that follow already have their T/C on record.
CC(C)CC(NC(=O)C(C)NC(=O)OCc1ccccc1)C(=O)OCc1ccccc1 (stereo not given); 91 % of control
O=C(O)C1C2C=CC(C2)C1c1ccccc1 (stereo not given); 114 % of control
CC(C)(Oc1cccc2ccccc12)C(=O)O; 93 % of control

Consider the following items and state reported T/C for each.
1. CC(=O)Nc1cc(C(=O)O)cc(C(F)(F)F)c1
2. O=C1Cc2cccc3cccc1c23

1. 94 % of control
2. 104 % of control

For each of the items listed, what is its T/C?
1. O=C(c1cccc(C(=O)n2c3c(c4ccccc42)CCCC3)c1)n1c2c(c3ccccc31)CCCC2
2. CCOC(=O)c1ccc(C(=O)OCC)nc1
3. O=C(c1ccc(Cl)cc1Cl)C(CS(=O)(=O)O)CS(=O)(=O)O
4. CN(CCO)c1c(Cl)c(=O)oc2ccc(Cl)cc12

88 % of control
103 % of control
100 % of control
89 % of control

L1210 leukemia ip in BDF1 mice, survival T/C / T/C / "C=CCNC(=S)N/N=C\c1cc(OC)c(OC)c(OC)c1" : value? 98 % of control

* * *

Could you please report measured T/C for the items listed next?
- Test system: L1210 leukemia ip in BDF1 mice, survival T/C
- protocolDescription: NCI In Vivo Anticancer Drug Screen. Data for tumor model L1210 Leukemia (intraperitoneal) in B6D2F1 (BDF1) mice
- conditionParameters: endpoint: mean survival time; dose: 400.0 mg/kg/injection; schedule: Q04DX002 (ip); vehicle: saline with Tween-80; higher = longer survival
Inconclusive results and toxic doses are left out.

Here is how some compounds turned out for T/C.
COC1CCC(/C(C#N)=C/C2CCC(NC(C)=O)CC2)CC1 (centres undefined); 94 % of control
CCOC(=O)c1ccc(NC(=O)Nc2cc(OC)ccc2OC)cc1; 94 % of control
CCn1c2ccccc2c2nnc(NCCCO)nc21; 94 % of control

For each of the compounds below, state T/C.
1. CCOc1ccc(Br)cc1/C=C1/NC(=O)NC1=O
2. C1CCC2(CC1)CCCO2
3. N#C/C(=C\c1cccn1Cc1ccc2ccccc2c1)C(N)=O

1. 97 % of control
2. 102 % of control
3. 93 % of control
